System: Sorghum bicolor
Test: Phytotoxic activity against Sorghum bicolor seeds assessed as inhibition of radicle growth at 10^-3 mol/l at 25 degC after 72 hr by filter-paper based radicle elongation assay
Type: functional
READOUT_KIND: inhibition at 1000 µM (%)
Expressed in %, but write only the number.

Can you share its inhibition at 1000 µM? I mean this molecule: COC(=O)[C@H](Cc1ccccc1)N/C(C)=C1\C(=O)C=C(C)OC1=O
24.4

Can you share its inhibition at 1000 µM? I mean this molecule: CC1=CC(=O)/C(=C(/C)Nc2cc(Cl)c([N+](=O)[O-])cc2O)C(=O)O1
64.4

Can you share its inhibition at 1000 µM? I mean this molecule: CC1=CC(=O)/C(=C(/C)Nc2ccccc2)C(=O)O1
62

Can you share its inhibition at 1000 µM? I mean this molecule: CC[C@H](C)N/C(C)=C1\C(=O)C=C(C)OC1=O
79.3

Can you share its inhibition at 1000 µM? I mean this molecule: CC1=CC(=O)/C(=C(/C)Nc2cc([N+](=O)[O-])ccc2O)C(=O)O1
55.6

Can you share its inhibition at 1000 µM? I mean this molecule: CCCN/C(C)=C1\C(=O)C=C(C)OC1=O
75.4

---

System: Sorghum bicolor
Test: Phytotoxic activity against Sorghum bicolor seeds assessed as inhibition of radicle growth at 10^-3 mol/l at 25 degC after 72 hr by filter-paper based radicle elongation assay
Type: functional
READOUT_KIND: inhibition at 1000 µM

Can you share its inhibition at 1000 µM? I mean this compound: COc1ccc(N/C(C)=C2\C(=O)C=C(C)OC2=O)cc1
48.2%

Can you share its inhibition at 1000 µM? I mean this compound: CC1=CC(=O)/C(=C(/C)NNc2ccccc2)C(=O)O1
27.2%

Can you share its inhibition at 1000 µM? I mean this compound: COC(=O)[C@@H](N/C(C)=C1\C(=O)C=C(C)OC1=O)C(C)C
70.5%

Can you share its inhibition at 1000 µM? I mean this compound: CC1=CC(=O)/C(=C(/C)Nc2ccccc2Cl)C(=O)O1
85.2%

Can you share its inhibition at 1000 µM? I mean this compound: COC(=O)[C@H](C)N/C(C)=C1\C(=O)C=C(C)OC1=O
71.7%

Can you share its inhibition at 1000 µM? I mean this compound: CC1=CC(=O)/C(=C(/C)NCc2ccccc2)C(=O)O1
70.8%

---

System: Cucumis sativus
Experiment: Phytotoxic activity against Cucumis sativus (cucumber)seeds assessed as inhibition of radicle growth at 10^-3 mol/l at 25 degC after 72 hr by filter-paper based radicle elongation assay
Type: functional
READOUT_KIND: inhibition at 1000 µM (%)
Expressed in %, but write only the number.

Can you share its inhibition at 1000 µM? I mean this molecule: COC(=O)[C@H](Cc1ccccc1)N/C(C)=C1\C(=O)C=C(C)OC1=O
63.1

Can you share its inhibition at 1000 µM? I mean this molecule: COC(=O)[C@@H](N/C(C)=C1\C(=O)C=C(C)OC1=O)C(C)C
80.8

Can you share its inhibition at 1000 µM? I mean this molecule: CC1=CC(=O)/C(=C(/C)NNc2ccc([N+](=O)[O-])cc2[N+](=O)[O-])C(=O)O1
77.6
